For each of the compounds below, state its pIC50.
- ASSAYED TARGET: WEE1 (Homo sapiens)
- Construct: purchased Thermo Fisher PR7373A
- EXPERIMENT DESCRIPTION: Selectivity versus WEE1 assay (ADP-Glo enzymatic assay)
- Type: biochemical
- TEST CONDITIONS: ADP-Glo; 15 nM WEE1, 60 minutes at 26° C.; banded
pIC50: −log10 of the molar value.

Worked cases, answers included:
In [3]: df
Out[3]:
                                   compound  measured_result
0  Cc1ccc(O)c(C)c1NC(=O)c1cnc(Nc2ccn(CC(=O)N3CCCC3)n2)s1 [BAA-148]           < 4.96
1  Cc1cnc(Nc2ncc(C(=O)Nc3c(C)ccc(O)c3C)s2)s1 [BAA-262]           < 4.96

Go through the items and report each one's pIC50.
1. Cc1ccc(O)c(C)c1NC(=O)c1cnc(NCc2nccs2)s1 [BAA-358]
2. CNc1ncc(C(=O)Nc2c(C)ccc(O)c2C)s1 [BAA-221]

stdout:
1. < 4.96
2. < 4.96

stdin: Quick one: pIC50 for CCOC(=O)c1cc(Nc2ncc(C(=O)Nc3c(C)ccc(O)c3C)s2)nn1C [BAA-024] ?
stdout: 4.96 to 6.00

---

For each of the compounds below, state its IC50.
- ASSAYED TARGET: WEE1 (Homo sapiens, UniProt P30291)
- Construct: purchased Thermo Fisher PR7373A
- Sequence (P30291 whole entry): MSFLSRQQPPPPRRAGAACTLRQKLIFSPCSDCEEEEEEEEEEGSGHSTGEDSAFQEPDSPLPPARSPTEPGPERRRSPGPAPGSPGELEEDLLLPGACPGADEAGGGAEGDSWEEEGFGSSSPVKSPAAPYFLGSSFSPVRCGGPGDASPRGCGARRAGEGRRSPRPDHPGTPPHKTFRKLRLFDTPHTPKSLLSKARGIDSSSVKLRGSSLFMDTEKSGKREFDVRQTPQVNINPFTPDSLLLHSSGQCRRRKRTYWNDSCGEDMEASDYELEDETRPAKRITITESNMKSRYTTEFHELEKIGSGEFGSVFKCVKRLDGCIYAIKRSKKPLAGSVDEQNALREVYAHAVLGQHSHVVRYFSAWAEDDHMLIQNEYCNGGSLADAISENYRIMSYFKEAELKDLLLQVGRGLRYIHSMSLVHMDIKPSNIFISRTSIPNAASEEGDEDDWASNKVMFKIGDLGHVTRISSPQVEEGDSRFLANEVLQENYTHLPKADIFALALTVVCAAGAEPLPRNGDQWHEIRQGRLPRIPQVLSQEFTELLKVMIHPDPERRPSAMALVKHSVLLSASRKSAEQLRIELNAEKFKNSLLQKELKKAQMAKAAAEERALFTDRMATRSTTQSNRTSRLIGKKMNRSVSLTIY
- EXPERIMENT DESCRIPTION: Selectivity versus WEE1 assay (ADP-Glo enzymatic assay)
- Assay type: biochemical
- TEST CONDITIONS: WEE1 15 nM; ADP-Glo; banded values
Where a name gives a salt, the structure may show the parent alone.

Worked cases, answers included:
>>> print(df.to_string())
                                   compound                       assayed_target  measured_result
0  Cc1ccc(O)c(Br)c1NC(=O)c1cnc(Nc2ccn(C)n2)s1  WEE1 (Homo sapiens, UniProt P30291)       1 to 11 µM
1  Cc1ccc(O)c(C)c1NC(=O)c1cnc(Nc2cn(C)nc2C)s1  WEE1 (Homo sapiens, UniProt P30291)          > 11 µM
2  Cc1ccc(O)c(C)c1NC(=O)c1cnc(Nc2cccc(N(C)CCC#N)n2)s1  WEE1 (Homo sapiens, UniProt P30291)       1 to 11 µM
3  Cc1ccc(O)c(C)c1NC(=O)c1cnc(Nc2nc(C(F)(F)F)co2)s1  WEE1 (Homo sapiens, UniProt P30291)          > 11 µM
4  Cc1ccc(O)c(C)c1NC(=O)c1cnc(Nc2ccn(C)n2)o1  WEE1 (Homo sapiens, UniProt P30291)          > 11 µM

Go through the items and report each one's IC50.
1. CC(=O)Nc1ccc(Nc2ncc(C(=O)Nc3c(C)ccc(O)c3C)s2)cc1
2. CCc1cn(CC#N)nc1Nc1ncc(C(=O)Nc2c(C)ccc(O)c2C)s1 [BAA-590, TFA salt]
3. CCN(C(=O)Cc1cccc(Nc2ncc(C(=O)Nc3c(C)ccc(O)c3C)s2)n1)C1CC1
4. Cc1cn(CC(F)F)nc1Nc1nnc(C(=O)Nc2c(C)ccc(O)c2C)s1
5. COc1ccc(F)c(Nc2ncc(C(=O)Nc3c(C)ccc(O)c3C)s2)n1
6. Cc1ccc(O)c(C)c1NC(=O)c1cnc(Nc2cc(C)n(CCC#N)n2)s1

stdout:
1: 1 to 11 µM; 2: 0.05 to 1 µM; 3: > 11 µM; 4: > 11 µM; 5: > 11 µM; 6: 1 to 11 µM

Go through the items and report each one's IC50.
1. Cc1ccc(O)c(C)c1NC(=O)c1cnc(Nc2nn(C)cc2Cl)s1
2. Cc1ccnc(Nc2ncc(C(=O)Nc3c(C)ccc(O)c3C)s2)c1
3. CCc1ccccc1Nc1ncc(C(=O)Nc2c(C)ccc(O)c2C)s1
4. CCN(C)C(=O)Cn1cc(C)c(Nc2ncc(C(=O)Nc3c(C)ccc(O)c3C)s2)n1
5. Cc1ccc(O)c(C)c1NC(=O)c1cnc(Nc2ncc(F)cc2Cl)s1
6. Cc1cn(CCN(C)C)nc1Nc1ncc(C(=O)Nc2c(C)ccc(O)c2C)s1
7. CCOc1ccccc1Nc1ncc(C(=O)Nc2c(C)ccc(O)c2C)s1 [BAA-539, TFA salt]
8. Cc1ccc(O)c(C)c1NC(=O)c1cnc(Nc2cccc3c2CCC3)s1

stdout:
["1 to 11 µM", "1 to 11 µM", "> 11 µM", "1 to 11 µM", "> 11 µM", "> 11 µM", "> 11 µM", "> 11 µM"]
